A compilation of IC50 values for Somatostatin receptor type 2 (Homo sapiens) from the published literature.

I would be grateful if you could share the reported IC50 for CC(=O)N[C@@H](Cc1ccccc1)C(=O)N[C@]1(C)Cc2c([nH]c3ccccc23)CN([C@@H](CCCCN)C(=O)N[C@H](C(N)=O)[C@@H](C)O)C1=O .
> 1000 nM

I would be grateful if you could share the reported IC50 for CC(C)NCc1ccc(C[C@@H]2NC(=O)[C@@H](Cc3c[nH]c4ccccc34)NC(=O)[C@@H]3CCC(=O)NCC[C@H](NC(=O)[C@H]([C@@H](C)O)NC2=O)C(=O)N[C@@H]([C@@H](C)O)C(=O)N[C@@H](CO)C(=O)N[C@H](C(=O)O)CSSC[C@H](NC(=O)[C@@H](N)Cc2ccc(O)cc2)C(=O)N[C@@H](CCCCN)C(=O)N[C@@H](Cc2ccccc2)C(=O)N3)cc1 .
> 1000 nM

I would be grateful if you could share the reported IC50 for CC(C)[C@@H]1NC(=O)[C@H](CCCCN)N(C)C(=O)[C@@H](Cc2c[nH]c3ccccc23)NC(=O)[C@H](Cc2ccc(O)cc2)NC(=O)[C@H](C)N(C)C(=O)[C@H](Cc2ccccc2)N(C)C1=O .
4.1 nM

Continuing:
I would be grateful if you could share the reported IC50 for C[C@@H]1NC(=O)[C@H](Cc2ccccc2)NC(=O)[C@@H](N)CSSC[C@@H](C(=O)O)NC(=O)[C@H](C)NC(=O)[C@H]([C@@H](C)O)NC(=O)[C@H](CCCCN)NC(=O)[C@H](Cc2c[nH]c3ccccc23)NC1=O .
> 10000 nM

----------
A compilation of IC50 values for Somatostatin receptor type 2 (Homo sapiens) from the published literature.

Below are worked cases with known answers.
I would be grateful if you could share the reported IC50 for C[C@H](c1ccc2ccccc2c1)[C@@H]1NC(=O)[C@H](Cc2ccc(N)cc2)NC(=O)[C@H](Cc2ccccc2)NC(=O)[C@H](NC(=O)[C@@H](N)Cc2ccc(O)cc2)CSSC[C@@H](C(=O)O)NC(=O)[C@H](Cc2ccccc2)NC(=O)[C@H]([C@@H](C)O)NC(=O)[C@H](CCCCN)NC1=O .
474 nM

I would be grateful if you could share the reported IC50 for Cc1nc([C@]2(c3cnn(C)c3)N[C@@H](c3nc(-c4ccc(F)cn4)c[nH]3)Cc3c2[nH]c2ccccc32)no1 .
> 10000 nM

I would be grateful if you could share the reported IC50 for CC(C)NCc1ccc(C[C@@H]2NC(=O)[C@@H](Cc3c[nH]c4ccccc34)NC(=O)[C@@H]3CCC(=O)NCCC(=O)NCCC[C@H](NC(=O)[C@H](Cc4ccccc4)NC(=O)[C@H]([C@@H](C)O)NC2=O)C(=O)N[C@@H](CO)C(=O)N[C@H](C(=O)O)CSSC[C@H](NC(=O)[C@@H](N)Cc2ccc(O)cc2)C(=O)N[C@@H](CCCCN)C(=O)N[C@@H](Cc2ccccc2)C(=O)N3)cc1 .
> 1000 nM

Consider the additional compound presented here.
I would be grateful if you could share the reported IC50 for CC(C)NCc1ccc(C[C@@H]2NC(=O)[C@@H](Cc3c[nH]c4ccccc34)NC(=O)[C@@H]3CCC(=O)NCCCC[C@H](NC(=O)[C@H](Cc4ccccc4)NC(=O)[C@H]([C@@H](C)O)NC2=O)C(=O)N[C@@H](CO)C(=O)N[C@H](C(=O)O)CSSC[C@H](NC(=O)[C@@H](N)Cc2ccc(O)cc2)C(=O)N[C@@H](CCCCN)C(=O)N[C@@H](Cc2ccccc2)C(=O)N3)cc1 .
> 1000 nM

----------
A compilation of IC50 values for Somatostatin receptor type 2 (Homo sapiens) from the published literature.

Short answer please: IC50, Somatostatin receptor type 2 (Homo sapiens), entry CC(C)NCc1ccc(C[C@@H]2NC(=O)C(Cc3c[nH]c4ccccc34)NC(=O)[C@H](Cc3ccccc3)NC(=O)[C@@H](Cc3ccccc3)NC(=O)[C@H](NC(=O)[C@@H](N)Cc3ccc(O)cc3)CSSC[C@@H](C(=O)O)NC(=O)[C@@H]([C@@H](C)O)NC(=O)[C@H](Cc3ccccc3)NC(=O)[C@@H]([C@@H](C)O)NC2=O)cc1 (stereo in doubt)
> 1000 nM

Short answer please: IC50, Somatostatin receptor type 2 (Homo sapiens), entry C[C@@H](O)[C@@H]1NC(=O)[C@H](CCCCN)NC(=O)[C@@H]([C@@H](C)c2ccc3ccccc3c2)NC(=O)[C@H](Cc2ccc(O)cc2)NC(=O)[C@H](Cc2ccccc2)NC(=O)[C@@H](N)CSSC[C@@H](C(=O)O)NC(=O)[C@H](Cc2ccccc2)NC1=O
> 1000 nM

Short answer please: IC50, Somatostatin receptor type 2 (Homo sapiens), entry CC(C)NCc1ccc(C[C@@H]2NC(=O)[C@@H](Cc3c[nH]c4ccccc34)NC(=O)[C@H](Cc3ccccc3)NC(=O)[C@H](Cc3ccccc3)NC(=O)[C@H](CCCCN)NC(=O)[C@@H](N)CSSC[C@@H](C(=O)N[C@@H](CCCCN)C(=O)N[C@@H](CCCCN)C(=O)N[C@@H](CCCCN)C(=O)O)N(C)C(=O)[C@H](CO)NC(=O)[C@H]([C@@H](C)O)NC(=O)[C@H](Cc3ccccc3)NC(=O)[C@H]([C@@H](C)O)NC2=O)cc1
> 1000 nM

Short answer please: IC50, Somatostatin receptor type 2 (Homo sapiens), entry CC(C)NCc1ccc(C[C@@H]2NC(=O)[C@@H](Cc3c[nH]c4ccccc34)NC(=O)[C@H](Cc3ccccc3)NC(=O)[C@@H]3CCC(=O)NCCCC[C@H](NC(=O)[C@H](Cc4ccccc4)NC(=O)[C@H]([C@@H](C)O)NC2=O)C(=O)N[C@@H](CO)C(=O)N[C@H](C(=O)O)CSSC[C@H](NC(=O)[C@@H](N)Cc2ccc(O)cc2)C(=O)N[C@@H](CCCCN)C(=O)N3)cc1
> 1000 nM

Short answer please: IC50, Somatostatin receptor type 2 (Homo sapiens), entry C[C@@H](O)[C@@H]1NC(=O)[C@H](CCCCN)NC(=O)[C@H](Cc2c[nH]c3ccccc23)NC(=O)[C@H](Cc2ccccc2)NC(=O)[C@H](Cc2ccccc2)NC(=O)[C@@H](N)CSSC[C@@H](C(=O)O)NC(=O)[C@H](Cc2ccc(O)cc2)NC1=O (stereo in doubt)
43 nM

Short answer please: IC50, Somatostatin receptor type 2 (Homo sapiens), entry COC(=O)[C@H](CCCN=C(N)N)NC(=O)CCCc1c(-c2ccccc2)[nH]c2c(F)cc(F)cc12
> 1000 nM

Short answer please: IC50, Somatostatin receptor type 2 (Homo sapiens), entry C[C@@H](O)[C@@H]1NC(=O)[C@H](CCCCN)NC(=O)[C@H](Cc2c[nH]c3ccccc23)NC(=O)[C@H](Cc2ccc(O)cc2)NC(=O)[C@H](Cc2ccccc2)NC(=O)[C@@H](N)CSSC[C@@H](C(=O)O)NC(=O)[C@H](Cc2ccccc2)NC1=O
54 nM

Short answer please: IC50, Somatostatin receptor type 2 (Homo sapiens), entry C[C@@H](O)[C@@H]1NC(=O)[C@H](CCCCN)NC(=O)[C@@H](Cc2c[nH]c3ccccc23)NC(=O)[C@H](N(C)C(=O)c2ccccc2)NC(=O)[C@H](Cc2ccccc2)NC(=O)[C@H](N)CSSC[C@@H](C(=O)O)NC(=O)[C@H](Cc2ccccc2)NC1=O (stereo in doubt; 8)
460 nM

Short answer please: IC50, Somatostatin receptor type 2 (Homo sapiens), entry CC(C)NCc1ccc(C[C@@H]2NC(=O)[C@H](N(C)C(=O)c3ccc4ccccc4c3)NC(=O)[C@H](Cc3ccccc3)NC(=O)[C@@H](NC(=O)[C@H](N)Cc3ccc(O)cc3)CSSC[C@@H](C(=O)N[C@H](C(N)=O)[C@@H](C)O)NC(=O)[C@H](Cc3ccccc3)NC2=O)cc1
> 1000 nM

Short answer please: IC50, Somatostatin receptor type 2 (Homo sapiens), entry CC(C)NCc1ccc(C[C@@H]2NC(=O)[C@@H](Cc3ccc4ccccc4c3)NC(=O)[C@H](Cc3ccccc3)NC(=O)[C@H](Cc3ccccc3)NC(=O)[C@H](CCCCN)NC(=O)[C@@H](NC(=O)CCc3ccc(O)cc3)CSSC[C@@H](C(=O)O)NC(=O)[C@H](CO)NC(=O)[C@H]([C@@H](C)O)NC(=O)[C@H](Cc3ccccc3)NC(=O)[C@H]([C@@H](C)O)NC2=O)cc1
> 1000 nM

Continuing:
Short answer please: IC50, Somatostatin receptor type 2 (Homo sapiens), entry CC(C)NCc1ccc(C[C@H]2C(=O)N[C@@H]([C@@H](C)O)C(=O)N[C@@H](Cc3ccc(O)c(I)c3)C(=O)N[C@H]3CCCCNC(=O)CC[C@H](NC(=O)[C@H](Cc4ccccc4)NC(=O)[C@H](CCCCN)NC(=O)[C@@H](N)CSSC[C@@H](C(=O)O)NC(=O)[C@H](CO)NC3=O)C(=O)N[C@H](Cc3c[nH]c4ccccc34)C(=O)N2C)cc1
> 1000 nM

Short answer please: IC50, Somatostatin receptor type 2 (Homo sapiens), entry CONC(=O)Nc1ccc(C[C@@H]2NC(=O)[C@@H](NC(=O)[C@@H](Cc3ccccc3)NC(N)=O)CSSC[C@@H](C(=O)N[C@H](C(N)=O)[C@@H](C)O)NC(=O)[C@H]([C@@H](C)O)NC(=O)[C@H](CCCCN)NC(=O)[C@@H](Cc3c[nH]c4ccccc34)NC2=O)cc1
3.1 nM

Short answer please: IC50, Somatostatin receptor type 2 (Homo sapiens), entry CC(C)NCc1ccc(C[C@@H]2NC(=O)[C@@H](N(C)C(=O)c3ccc4ccccc4c3)NC(=O)[C@H](Cc3ccccc3)NC(=O)[C@H](NC(=O)[C@@H](N)Cc3ccc(O)cc3)CSSC[C@@H](C(=O)N[C@@H](Cc3ccc4ccccc4c3)C(N)=O)NC(=O)[C@H](Cc3ccccc3)NC2=O)cc1
> 1000 nM
